Target: Large T antigen (Simian virus 40)
Experiment: SV40 large T antigen inhibitors, biochemical (AID 1903)
Conditions: SV40 large T antigen ATPase/helicase inhibition assay; at 20 µM; active compounds read high
Screen size: about 310,000 compounds; about 1,200 (0.39%) were called active. Only a sample is shown. Results with a measured potency or affinity are listed apart.
MEASURE NAME: inhibition (%)
The reply should be a number in %, with the unit left off.

O=C(CCc1nnc(-c2ccsc2)o1)NCc1ccccc1OC(F)(F)F | 3.5

Task: Return reported inhibition; argument: COc1cc(C2CC(=O)N3CN(c4ccccc4C)CSC3=C2C#N)cc(OC)c1OC (stereo unspecified)
Result: -11.8

Task: Return reported inhibition; argument: `COc1ccc(C(=O)C2CCN(CC(=O)Nc3ccc(C)cc3)CC2)cc1`
Result: -0.7

Task: Return reported inhibition; argument: COc1ccc(N2CSC3=C(C#N)C(c4cc(OC)ccc4OC)CC(=O)N3C2)c(OC)c1 (stereo unspecified)
Result: 34.1

Task: Return reported inhibition; argument: `O=C(COc1c(Cl)cc(Cl)cc1Cl)c1ccc(Cl)cc1`
Result: 2.07

Task: Return reported inhibition; argument: `COc1cccc(-c2cc(C(=O)Nc3cc(C)on3)no2)c1`
Result: 3.2

====

Biological target: Large T antigen (Simian virus 40)
Test: SV40 large T antigen inhibitors, biochemical (AID 1903)
Settings: SV40 large T antigen ATPase/helicase inhibition assay; at 20 µM; active compounds read high
Screen size: about 310,000 compounds; about 1,200 (0.39%) were called active. These entries were drawn from the full list. Results with a measured potency or affinity are listed apart.
Is inhibition at least 10%? Then Satisfied. If not, Not satisfied.

Completed entries (count: 2):
COc1ccc(-c2c(-c3ccc(OCC(=O)NN)cc3O)n[nH]c2C)cc1OC | Not satisfied
CC(=O)Nc1cccc(-c2cn3ccc(C)cc3n2)c1 | Satisfied

Task: Say whether `COCn1c(-c2ccc(OC)c(OC)c2)nc2ccccc21` shows inhibition of 10% or more.
Result: Not satisfied

Task: Say whether `CCn1c(SCC(=O)N/N=C/c2ccc(OC)c(OC)c2)nc2ccccc21` shows inhibition of 10% or more.
Result: Not satisfied

Task: Say whether `COc1ccc2c(c1O)-c1ccccc1CCN(C)C2` shows inhibition of 10% or more.
Result: Satisfied

Task: Say whether `Brc1ccc(-c2cn3ccccc3n2)cc1` shows inhibition of 10% or more.
Result: Not satisfied

Task: Say whether `Fc1ccc(-c2cn3ccccc3n2)cc1` shows inhibition of 10% or more.
Result: Not satisfied

Task: Say whether `COc1ccc(N(CC(=O)Nc2ccc(C)cc2C)S(=O)(=O)c2c(C)n[nH]c2C)cc1` shows inhibition of 10% or more.
Result: Satisfied

Task: Say whether `Cc1ccn2cc(-c3ccc(Br)cc3)nc2c1` shows inhibition of 10% or more.
Result: Not satisfied

Task: Say whether `O=Cc1ccccc1OCCOc1ccc([N+](=O)[O-])cc1` shows inhibition of 10% or more.
Result: Satisfied

Task: Say whether c1ccc(C2[C@H]3CN(Cc4cccnc4)[C@H](c4ccccc4)C34CC2(c2cccnc2)C4)cc1 (stereo partly drawn) shows inhibition of 10% or more.
Result: Not satisfied

Task: Say whether `COc1cc(/C=N/NC(=O)c2cc(-c3ccccc3)nc3ccccc23)ccc1O` shows inhibition of 10% or more.
Result: Satisfied
